B1: Transcription factor SOX-11, residues 50 to 117; numbered along this chain, P35716 (parent)
chain: KRPMNAFMVWSKIERRKIMEQSPDMHNAEISKRLGKRWKMLKDSEKIPFIREAERLRLKHMADYPDYK

# Variants of: B1
# protocolNotes: abundance fitness (aPCA) (normalised: wild type 0, dead -1); higher = more abundant; growth selection in yeast, the domain comes from the species named
# conditionsUsed: Homo sapiens
Entries are grouped by abundance fitness into these classes: b0 = under -0.8, b1 = from -0.8 up to -0.5, b2 = -0.5 and over

Solved entries:
variant | category
S31R | b2
E45S | b0
D24R | b2
L34R | b1
R33F | b2

Dear colleague, I would appreciate it if you could identify the bin for R37L and reply at your convenience.
b2

Dear colleague, I would appreciate it if you could identify the bin for E45C and reply at your convenience.
b1

Dear colleague, I would appreciate it if you could identify the bin for S31P and reply at your convenience.
b0

Origin of measurements: the Human Domainome abundance scans (Beltran et al. 2025)
